src = paper PMC2749030

Molecular target: FLAG-ERα (Homo sapiens, UniProt P03372)
Construct: pSG5-puro plasmid
Sequence (P03372 1-595): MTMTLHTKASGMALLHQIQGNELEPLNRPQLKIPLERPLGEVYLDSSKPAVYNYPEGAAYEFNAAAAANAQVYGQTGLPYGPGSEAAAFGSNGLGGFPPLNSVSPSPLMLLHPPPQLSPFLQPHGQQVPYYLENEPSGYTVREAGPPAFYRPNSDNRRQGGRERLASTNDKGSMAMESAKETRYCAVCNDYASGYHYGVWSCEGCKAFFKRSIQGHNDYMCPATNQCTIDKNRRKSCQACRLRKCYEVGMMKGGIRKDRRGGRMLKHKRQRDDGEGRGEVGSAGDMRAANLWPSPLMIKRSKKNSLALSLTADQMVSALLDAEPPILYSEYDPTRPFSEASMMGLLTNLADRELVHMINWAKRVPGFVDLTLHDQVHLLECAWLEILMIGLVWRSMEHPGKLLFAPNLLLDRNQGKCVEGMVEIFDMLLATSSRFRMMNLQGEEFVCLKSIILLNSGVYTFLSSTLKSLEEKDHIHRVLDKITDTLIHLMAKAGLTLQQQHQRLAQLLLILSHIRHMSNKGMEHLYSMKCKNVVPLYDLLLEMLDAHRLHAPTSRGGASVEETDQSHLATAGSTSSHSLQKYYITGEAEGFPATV
Assay: ERE-driven luciferase transactivation assay in HELN-Fα cells
Details: 16 hr stimulation, luciferase activity, 100% = 10 nM E2
PROPERTY_NAME: pEC50
Reminder that pEC50 is minus the log10 of a molar concentration.

q: I am curious: what pEC50 value has been reported for CCCc1c(-c2ccc(O)cc2)nn(-c2ccc(O)cc2)c1-c1ccc(O)cc1 ?
a: 9.82
